Test system: E coli wild type
Assay: MIC by broth microdilution, wild type E coli
Assay type: cell-based
Conditions: Escherichia coli, strain AG03; Table 1 (Example 1); read-out: MIC50 E coli AG03
Structures can show the parent of a compound that is named as a salt.
quantity.measured: MIC50 (µg/mL)
Use µg/mL as the unit, but write only the number.

Look over these answered cases.
compound	units.label	measured.number
NC[C@@H]1O[C@H](O[C@@H]2C(O)[C@H](O[C@@H]3C(O)[C@H](N)CC(N)[C@H]3O[C@H]3OC(CO)[C@@H](O)[C@H](O)C3N)O[C@@H]2CNC=O)C(N)C(O)[C@@H]1O (stereo partly shown) [Compound 137, acetate salt]	µg/mL	4
NC[C@@H]1O[C@H](O[C@H]2[C@@H](O)[C@H](O[C@@H]3[C@@H](O)[C@H](N)C[C@H](N)[C@H]3O[C@H]3O[C@H](CO)[C@@H](O)[C@H](O)[C@H]3N)O[C@@H]2CO)[C@H](N)[C@@H](O)[C@@H]1O [paromomycin, reference compound]	µg/mL	4

For the next question, use this compound.
Query: Suppose we examine the compound NCC1OC(OC2C(CNC=O)OC(OC3C(O)C(N)CC(N)C3OC3OC(CO)C(O)CC3N)C2O)C(N)C(O)C1O (stereo not shown) [Compound 153, 3′,5″-Dideoxy-5″-formamido-paromomycin] ; what MIC50 value has been reported?
Result: 8

====

Tested on: A1555G mutant mitochondrial ribosome (human chimeric)
Assay: in-vitro translation assay, human chimeric ribosomes, A1555G mutant mitochondrial decoding site
Format: biochemical
Conditions: Table 3 (Example 3)
Counter-ions that a name gives are not always drawn.
quantity.measured: Selectivity for Binding to the Bacterial Ribosome over the Mutant Mitochondrial Ribosome
The answer should be written as a number, with no unit following it.

Look over these answered cases.
molecule	measured.number
NCC1OC(OC2C(N)CC(N)C(O)C2OC2OC(CO)C(OC3OC(CN)C(O)C(O)C3N)C2O)CC(O)C1O (stereo not shown) [Compound 173, 2′-Deamino-neomycin acetate salt]	31
NCC1OC(OC2C(CO)OC(OC3C(O)C(N)CC(N)C3OC3OC(CN)C(O)C(O)C3NC=O)C2O)C(N)C(O)C1O (stereo not shown) [Compound 182, 2′-N-Formamido-neomycin]	108
CNC1C(OC2C(N)CC(N)C(O)C2OC2OC(CO)C(OC3OC(CN)C(O)C(O)C3N)C2O)OC(CO)C(O)C1O (stereo not shown) [Compound 115, 2′-N-Methyl-paromomycin acetate salt]	1134

For the next question, use this molecule.
Query: Suppose we examine the molecule CNC1C(OC2C(N)CC(N)C(O)C2OC2OC(CO)C(OC3OC(CN)C(O)C(O)C3N)C2O)OC(CN)C(O)C1O (stereo not shown) [Compound 171, 2′-N-Methyl-neomycin acetate salt] ; what Selectivity for Binding to the Bacterial Ribosome over the Mutant Mitochondrial Ribosome value has been reported?
Result: 117

====

Tested on: MRSA
Test: MIC by broth microdilution, MRSA isolates
Assay type: cell-based
Conditions: clinical isolate AG039, AAC(6′)-I ANT(4′)-I
quantity.measured: MIC AG039 MRSA AAC(6′)-I ANT(4′)-I (µg/mL)
Use µg/mL as the unit, but write only the number.

compound	units.label	MIC AG039 MRSA AAC(6′)-I ANT(4′)-I
NC[C@@H]1O[C@H](O[C@H]2[C@@H](O)[C@H](O[C@@H]3[C@@H](O)[C@H](N)C[C@H](N)[C@H]3O[C@H]3O[C@H](CN)[C@@H](O)[C@H](O)[C@H]3N)O[C@@H]2CO)[C@H](N)[C@@H](O)[C@@H]1O [neomycin, Neomycin B, reference compound]	µg/mL	128

Query: Suppose we examine the compound CC1CC(N)C2OC(OC3C(N)CC(N)C(O)C3OC3OC(CO)C(OC4OC(CN)C(O)C(O)C4N)C3O)C(N)C(O)C2O1 (centres unmarked) ; what MIC AG039 MRSA AAC(6′)-I ANT(4′)-I value has been reported?
Result: 128
